Test system: SK-MEL-5 melanoma
Experiment: NCI tumour cell line growth inhibition, 48 h
reported_endpoint: TGI (µM)
Could you give me the number in µM? Just the number is fine.

Answered examples (2):
>>> value_observed("CC1=CC(=O)C(O)C2(C)C1CC(O)C13COC4(C)C(OC(=O)C41)C(O)C23 (centres undefined)")
21.2
>>> value_observed("CC(=O)Oc1ccccc1C(=O)/C=C/c1cccc([N+](=O)[O-])c1")
9.07

Quick check: TGI on SK-MEL-5 melanoma, item COc1ccc(/C=N/NC(=O)Cn2c(-c3ccc(S(C)(=O)=O)cc3)nc3cc(Cl)ccc32)cc1 ?
8.55

* * *

# Lookup of reported TGI keyed by entry
Tested on: LOX IMVI melanoma
Experiment: NCI tumour cell line growth inhibition, 48 h

Answered examples (4):
>>> value_observed("C=CCOC(=O)C1C2OC3(C(C(=O)OC)=C2C(=O)OC)c2ccccc2CCC13 (centres undefined)")
"> 10 µM"
>>> value_observed("CCOC(=O)CSc1nnc(C(Sc2nc(-c3ccccc3)c(-c3ccccc3)[nH]2)C(C)C)n1-c1ccccc1 (centres undefined)")
"19.9 µM"
>>> value_observed("CCN(CC)Cc1sc2nc3ccccc3n2c1-c1ccc(OC)cc1")
"> 100 µM"
>>> value_observed("COc1ccc(-c2cc(=O)c3c(OC)c(OC)c(OC)c(OC)c3o2)cc1")
"> 100 µM"

Form field: reported TGI of COC(=O)c1c(O)ccc2c1C1(Cc3ccccc3C1=O)C(O)O2 (centres undefined)
> 100 µM

Another molecule to look at: C[C@@H]1O[C@@H](OC[C@H]2O[C@@H](OCCc3ccc(O)c(O)c3)[C@H](O)[C@@H](O)[C@@H]2OC(=O)/C=C/c2ccc(O)c(O)c2)[C@H](O)[C@H](O)[C@H]1O
> 100 µM

Another molecule to look at: CCN(c1cccc(NC(=S)Nc2ccccc2N(CC)c2cc(-c3ccccc3)no2)c1)c1cc(-c2ccccc2)no1
> 100 µM

Another molecule to look at: CC1(C)CCC[C@]2(C)[C@@H](C=O)C(C=O)=CC[C@@H]12
42.2 µM

Another molecule to look at: C#CCOCC12C=CC(O1)C1C(=O)OCC12 (centres undefined)
> 100 µM

* * *

# Lookup of reported TGI keyed by entry
Test system: SN12C renal
Assay: NCI tumour cell line growth inhibition, 48 h

Answered examples (5):
>>> value_observed("CC(C)=CCC/C(C)=C/CC/C(C)=C/CC/C=C(\\C)CC/C=C(\\C)CCC(=O)Nc1ccn(C2OC(CO)C(O)C2(F)F)c(=O)n1 (configuration not stated)")
"13.1 µM"
>>> value_observed("Cc1ccc(CC(C)N)cc1 (configuration not stated)")
"> 100 µM"
>>> value_observed("C[CH2][Pb]([CH2]C)([CH2]C)[O]C(=O)c1ccc2ccccc2n1")
"> 10 µM"
>>> value_observed("COc1ccc(OC)c(Cn2cc3c(c2)-c2oncc2CC3)c1")
"> 100 µM"
>>> value_observed("c1ccc2c3c([nH]c2c1)C1CCCN1CC3 (configuration not stated)")
"> 10 µM"

Form field: reported TGI of Cn1cncc1CC1COC(=O)C1C(O)c1ccccc1 (configuration not stated)
> 100 µM

Another compound to look at: COc1cc2nc(NCCCCCNC(=O)c3ccco3)nc(N)c2cc1OC
> 100 µM

Another compound to look at: Cn1cc(-c2nonc2-c2cn(C)c3ccccc23)c2ccccc21
> 100 µM

Another compound to look at: CN(C)c1ccc(N=Nc2ccncc2)cc1
> 100 µM

Another compound to look at: CCOC1=C2N=C(Cc3ccccc3F)N=C2C(=O)c2ccccc21
> 100 µM

Another compound to look at: COc1ccc(/C=C2\CN(C)C/C(=C\c3ccc(OC)c(OC)c3OC)C2=O)c(OC)c1OC
0.449 µM

Another compound to look at: O=C(NC1CCCC1=O)c1ccccc1 (configuration not stated)
> 100 µM

Reference source for all entries: PubChem BioAssay (NCI)
